experiment: Phase 1 study, MAD cohorts: plasma pharmacokinetics; format: in vivo, human; conditions: both sexes, human, plasma, oral, 6 mg, healthy subjects, MAD Day 14, 6 mg (fasted); median
READOUT_NAME: Tmax

Enquiry: Respond only with Tmax recorded for N#Cc1cccc(C#N)c1-c1c(-c2cccc(-c3ccc(C(=O)NCC(=O)O)cc3Cl)c2)n(S(=O)(=O)c2ccc(C(F)F)cc2)c2ccc(F)cc12
Return: 2 h

* * *

assay: Short term HFD mouse model: plasma and liver exposure; format: in vivo; details: HFD mice, three oral doses of 10 mg/kg over two days, 4 h after final dose
READOUT_NAME: liver/plasma ratio 4 h

Below are worked cases with known answers.
MOLECULE: CS(=O)(=O)NC(=O)c1ccc(-c2cccc(-c3c(-c4c(C#N)cccc4C#N)c4cc(F)ccc4n3S(=O)(=O)c3ccc(C(F)F)cc3)c2)c(Cl)c1 [32/5]
liver/plasma ratio 4 h: B (5 to ≤30)
--
MOLECULE: N#Cc1cccc(C#N)c1-c1c(-c2cccc(-c3c(F)cc(CC(=O)O)cc3F)c2)n(S(=O)(=O)c2ccc(C(F)F)cc2)c2ccc(F)cc12 [3/73]
liver/plasma ratio 4 h: C (30 to ≤100)
--
MOLECULE: N#Cc1cccc(C#N)c1-c1c(-c2cccc(-c3ccc(C(=O)O)cc3F)c2)n(S(=O)(=O)c2ccc(C(F)F)cc2)c2ccc(F)cc12 [11/51]
liver/plasma ratio 4 h: C (30 to ≤100)
--
MOLECULE: CN(CCS(=O)(=O)O)C(=O)c1ccc(-c2cccc(-c3c(-c4c(C#N)cccc4C#N)c4cc(F)ccc4n3S(=O)(=O)c3ccc(C(F)F)cc3)c2)c(Cl)c1 [10/2]
liver/plasma ratio 4 h: B (5 to ≤30)
--
MOLECULE: N#Cc1cccc(C#N)c1-c1c(-c2cccc(-c3ccc(C(=O)O)cc3Cl)c2)n(S(=O)(=O)c2ccc(C(F)(F)F)nc2)c2ccc(F)cc12 [11/37]
liver/plasma ratio 4 h: C (30 to ≤100)

Kindly consider the entry below.
Enquiry: Query liver/plasma ratio 4 h for N#Cc1cccc(C#N)c1-c1c(-c2cccc(-c3ccc(C(=O)NCCS(=O)(=O)O)cc3Cl)c2)n(S(=O)(=O)c2ccc(C(F)F)cc2)c2ccc(F)cc12 [10/1]
Return: C (30 to ≤100)
